Target: human PD-1 (Jurkat-PD-1 cells) / PE-labeled human PD-L1-Ig (Homo sapiens)
Construct: expressed in transfected cells; host or cells: Jurkat cell line over-expressing human PD-1
Sequence (Q15116 25-288): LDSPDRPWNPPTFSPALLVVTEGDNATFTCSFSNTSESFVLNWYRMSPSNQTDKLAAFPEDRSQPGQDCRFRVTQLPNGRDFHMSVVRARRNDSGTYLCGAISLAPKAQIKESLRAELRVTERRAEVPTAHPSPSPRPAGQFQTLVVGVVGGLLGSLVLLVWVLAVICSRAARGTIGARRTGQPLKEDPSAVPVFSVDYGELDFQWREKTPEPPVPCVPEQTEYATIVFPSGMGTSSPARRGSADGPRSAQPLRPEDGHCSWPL
Experiment: Jurkat-PD-1 Cell Binding High-Content Screening Assay (CBA); Jurkat hPD1-PDL1 assay
Conditions: Jurkat cell line over-expressing human PD-1; PE-labeled PD-L1-Ig 20 nM final; compound incubated 2 hours at 37° C.; read-out: Jurkat HPD1-PDL1 IC50
Positions of bridges follow the written chain, without caps; N, C: chain ends. Non-standard residues stand in square brackets, D forms with d. Residues, ends and D or L forms follow the SMILES beside them. ξ: configuration not given here. Bip = N[C@@H](Cc1ccc(-c2ccccc2)cc1)C(=O)O; NMeF = CN[C@@H](Cc1ccccc1)C(=O)O; ξR = N=C(N)NCCCC(N)C(=O)O; NMeA = CN[C@@H](C)C(=O)O; Sar = CNCC(=O)O
reported endpoint: IC50 (µM)
Numbers only, in µM.

- compound: "CC(C)C[C@@H]1NC(=O)C(CCCNC(=N)N)NC(=O)[C@H](Cc2ccccc2)N(C)C(=O)[C@H](CCC(=O)O)NC(=O)[C@H](CCCNC(=N)N)NC(=O)[C@H](Cc2ccc(-c3ccccc3)cc2)NC(=O)[C@H](C(C)C)NC(=O)[C@H](Cc2c[nH]c3ccccc23)NC(=O)[C@H](CC(=O)O)NC(=O)[C@H](Cc2ccc(O)cc2)NC(=O)[C@H](Cc2ccccc2)NC(=O)CSC[C@@H](C(=O)NCC(N)=O)NC(=O)[C@H](CO)NC(=O)[C@H](C(C)C)NC1=O (some centres unmarked) [Example 1223] ({CH2CO}-FYDWV[Bip]RE[NMeF][ξR]LVSCG-NH2; thioether N-14)"
  unit tag: "µM"
  IC50: 0.99

Input: Which IC50 value belongs to CC(C)C[C@@H]1NC(=O)[C@H](C)NC(=O)CN(C)C(=O)[C@H](C)N(C)C(=O)[C@H](CCC(=O)O)NC(=O)[C@H](Cc2ccc(-c3ccccc3)cc2)NC(=O)[C@H](CC(C)C)NC(=O)[C@H](Cc2c[nH]c3ccccc23)NC(=O)[C@H](CC(=O)O)NC(=O)[C@H](Cc2ccc(O)cc2)NC(=O)[C@H](Cc2ccccc2)NC(=O)CSC[C@@H](C(=O)N[C@@H](C)C(N)=O)NC(=O)[C@H](CO)NC(=O)[C@H](C(C)C)NC1=O [Example 1164] ({CH2CO}-FYDWL[Bip]E[NMeA][Sar]ALVSCA-NH2; thioether N-14) ?
Output: 0.9
